Measured on: hCA XII (Homo sapiens)
Construct: made in house
Sequence (O43570 25-354): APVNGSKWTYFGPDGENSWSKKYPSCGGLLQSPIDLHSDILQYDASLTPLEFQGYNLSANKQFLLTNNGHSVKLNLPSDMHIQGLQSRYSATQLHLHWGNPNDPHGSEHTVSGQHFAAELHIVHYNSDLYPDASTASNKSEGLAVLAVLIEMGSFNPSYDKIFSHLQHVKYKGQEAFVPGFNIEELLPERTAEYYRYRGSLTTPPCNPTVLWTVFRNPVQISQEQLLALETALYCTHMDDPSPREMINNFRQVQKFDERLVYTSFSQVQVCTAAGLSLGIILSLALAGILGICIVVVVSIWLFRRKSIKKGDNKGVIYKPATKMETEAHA
Assay protocol: stopped-flow CO2 hydrase assay, hCA XII
Format: biochemical
Measurement conditions: result stated in words
Quantity name: inhibition of hCA XII (in words)

| Mol | Measured on | Quantity name | Value |
| --- | --- | --- | --- |
| CC(C)(Oc1ccc(Cl)cc1)C(=O)NS(=O)(=O)c1ccccc1 | hCA XII (Homo sapiens) | inhibition of hCA XII (in words) | completely inactive |
| Cc1ccc(C)c(OCCCC(C)(C)C(=O)NS(=O)(=O)c2ccccc2)c1 | hCA XII (Homo sapiens) | inhibition of hCA XII (in words) | completely inactive |

---

Could you please report measured Ki for the items listed next?
Measured on: hCA I (Homo sapiens, UniProt P00915)
Sequence (P00915 whole entry): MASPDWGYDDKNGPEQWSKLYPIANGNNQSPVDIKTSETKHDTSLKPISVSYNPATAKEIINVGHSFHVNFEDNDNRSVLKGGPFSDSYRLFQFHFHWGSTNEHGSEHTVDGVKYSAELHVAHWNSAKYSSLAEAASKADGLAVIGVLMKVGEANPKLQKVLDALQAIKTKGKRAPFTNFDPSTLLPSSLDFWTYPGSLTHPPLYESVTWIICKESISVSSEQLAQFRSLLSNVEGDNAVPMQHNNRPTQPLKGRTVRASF
Assay protocol: stopped-flow CO2 hydrase assay, hCA I
Measurement conditions: recombinant hCA I, CO2 hydration, 15 min preincubation

Prompt: Return Ki (reported value) for this compound: CC(C)(Oc1ccc(C(=O)c2ccc(Cl)cc2)cc1)C(=O)NS(=O)(=O)c1ccc(NC(=O)c2ccccc2)cc1
Response: < 10 µM

Prompt: Tell me its Ki given CC(C)(Oc1ccc(C(=O)c2ccc(Cl)cc2)cc1)C(=O)NS(=O)(=O)c1ccc(Cl)cc1 as the entry.
Response: < 10 µM

Prompt: Given CC(C)(Oc1ccc(C(=O)c2ccc(Cl)cc2)cc1)C(=O)NS(=O)(=O)c1ccccc1 , respond with its Ki.
Response: < 10 µM

---

Measured on: hCA I (Homo sapiens)
Construct: made in house
Assay protocol: stopped-flow CO2 hydrase assay, hCA I
Format: biochemical
Measurement conditions: result stated in words

| Mol | inhibition of hCA I (in words) |
| --- | --- |
| Cc1ccc(C)c(OCCCC(C)(C)C(=O)NS(=O)(=O)c2ccccc2)c1 | completely inactive |
| CC(C)(Oc1ccc(Cl)cc1)C(=O)NS(=O)(=O)c1ccccc1 | completely inactive |

---

Measured on: hCA IX (Homo sapiens, UniProt Q16790)
Construct: made in house
Assay protocol: stopped-flow CO2 hydrase assay, hCA IX
Assay type: biochemical
Measurement conditions: result stated in words

| Mol | inhibition of hCA IX (in words) |
| --- | --- |
| Cc1ccc(C)c(OCCCC(C)(C)C(=O)NS(=O)(=O)c2ccccc2)c1 | completely inactive |
| CC(C)(Oc1ccc(Cl)cc1)C(=O)NS(=O)(=O)c1ccccc1 | completely inactive |

---

Measured on: hCA II (Homo sapiens, UniProt P00918)
Assay protocol: stopped-flow CO2 hydrase assay, hCA II
Measurement conditions: recombinant hCA II, CO2 hydration, 15 min preincubation
Quantity name: Ki (nM)
Kindly answer with a numeric value in nM, unit omitted.

Prompt: Look up Ki of CC(C)(Oc1ccc(C(=O)c2ccc(Cl)cc2)cc1)C(=O)NS(=O)(=O)c1ccc([N+](=O)[O-])cc1 and report it.
Response: 16

Prompt: // Input: CC(C)(Oc1ccc(C(=O)c2ccc(Cl)cc2)cc1)C(=O)NS(=O)(=O)c1ccccc1 . Output its Ki only.
Response: 1300

Prompt: Report Ki, nothing else, for this compound: CC(C)(Oc1ccc(C(=O)c2ccc(Cl)cc2)cc1)C(=O)NS(=O)(=O)c1ccc(NC(=O)c2ccccc2)cc1
Response: 77

---

Quantity name: melting point

Prompt: Answer with the recorded melting point for the compound listed here: CC(C)(Oc1ccc(C(=O)c2ccc(Cl)cc2)cc1)C(=O)NS(=O)(=O)c1ccc(Cl)cc1
Response: 204 to 205 °C (dec.)

Prompt: Specify melting point for CC(C)(Oc1ccc(C(=O)c2ccc(Cl)cc2)cc1)C(=O)NS(=O)(=O)c1ccc([N+](=O)[O-])cc1 and stop.
Response: 196 to 198 °C

Prompt: Answer with the recorded melting point of CC(C)(Oc1ccc(C(=O)c2ccc(Cl)cc2)cc1)C(=O)NS(=O)(=O)c1ccc(NC(=O)c2ccccc2)cc1 only.
Response: 232 to 234 °C

Prompt: Quote melting point reported for O=C(COc1ccc(C(=O)c2ccccc2)cc1)NS(=O)(=O)c1ccccc1 please.
Response: 61 to 62 °C

Prompt: Please indicate melting point recorded for COc1ccc(S(=O)(=O)NC(=O)C(C)(C)Oc2ccc(C(=O)c3ccc(Cl)cc3)cc2)cc1
Response: 188 to 189 °C

Prompt: Give melting point for CC(=O)Nc1ccc(S(=O)(=O)NC(=O)C(C)(C)Oc2ccc(C(=O)c3ccc(Cl)cc3)cc2)cc1
Response: 226 to 228 °C

---

Measured on: hCA II (Homo sapiens)
Construct: made in house
Assay protocol: stopped-flow CO2 hydrase assay, hCA II
Type: biochemical
Measurement conditions: result stated in words

| Mol | inhibition of hCA II (in words) |
| --- | --- |
| Cc1ccc(C)c(OCCCC(C)(C)C(=O)NS(=O)(=O)c2ccccc2)c1 | completely inactive |
| CC(C)(Oc1ccc(Cl)cc1)C(=O)NS(=O)(=O)c1ccccc1 | completely inactive |
